Entry source: patent US20250186408A1

TARGET SYSTEM: NAV1.5 (Homo sapiens, UniProt Q14524)
ASSAY DETAILS: Ion Channel NAV1.5 Blocker
# IC50 listing for each entry below

- MOLECULE: "Clc1cccc(C#Cc2n[nH]c3ncccc23)c1 [Compound 10.1]"
  RESULT VALUE: "> 10 µM"

Exercise: # get_value(readout='IC50', item= CC(C)(C)c1ccc(C#CC(O)c2ccccc2)cc1 (racemic) [Compound 3.3] )
Key: > 10 µM

###

Parameter IC50, tested on OPRM1 (Homo sapiens), listed per item.
Sequence (P35372 whole entry): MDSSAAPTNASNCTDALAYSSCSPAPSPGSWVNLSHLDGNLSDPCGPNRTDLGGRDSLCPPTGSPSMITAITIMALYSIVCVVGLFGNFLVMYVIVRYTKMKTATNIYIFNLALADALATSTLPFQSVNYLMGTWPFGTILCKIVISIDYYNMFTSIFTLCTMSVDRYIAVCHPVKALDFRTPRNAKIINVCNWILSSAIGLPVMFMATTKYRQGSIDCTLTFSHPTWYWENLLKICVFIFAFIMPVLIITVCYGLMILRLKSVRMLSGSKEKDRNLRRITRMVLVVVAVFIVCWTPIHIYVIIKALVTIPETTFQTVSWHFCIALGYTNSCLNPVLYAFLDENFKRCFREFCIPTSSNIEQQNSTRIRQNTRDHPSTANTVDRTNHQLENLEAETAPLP

- MOLECULE: "Clc1cccc(C#Cc2n[nH]c3ncccc23)c1 [Compound 10.1]"
  IC50: "> 10 µM"

Exercise: Query IC50 on OPRM1 (Homo sapiens) for CC(C)(C)c1ccc(C#CC(O)c2ccccc2)cc1 (racemic) [Compound 3.3]
Key: > 10 µM

###

TARGET SYSTEM: CHRM1 (Homo sapiens, UniProt P11229)
Sequence (P11229 whole entry): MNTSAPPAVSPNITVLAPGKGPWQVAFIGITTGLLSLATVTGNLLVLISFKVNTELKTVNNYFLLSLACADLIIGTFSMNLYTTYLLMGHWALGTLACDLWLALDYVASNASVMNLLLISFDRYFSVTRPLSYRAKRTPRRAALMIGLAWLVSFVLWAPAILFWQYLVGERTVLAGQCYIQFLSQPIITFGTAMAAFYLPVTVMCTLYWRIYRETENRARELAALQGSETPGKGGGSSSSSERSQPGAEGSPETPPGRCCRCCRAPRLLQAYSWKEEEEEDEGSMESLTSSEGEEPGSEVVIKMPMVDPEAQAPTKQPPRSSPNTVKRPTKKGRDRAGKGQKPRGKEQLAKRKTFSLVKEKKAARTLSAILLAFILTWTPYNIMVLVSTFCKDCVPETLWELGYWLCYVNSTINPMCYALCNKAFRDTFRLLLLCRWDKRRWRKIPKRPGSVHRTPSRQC
ASSAY DETAILS: Calcium Flux CHRM1 Agonist
pEC50: −log10 of the molar value.
QUANTITY NAME: pEC50

- MOLECULE: "CC(C)(C)c1ccc(C#CC(O)c2ccccc2)cc1 (racemic) [Compound 3.3]"
  QUANTITY NAME: "pEC50"
  RESULT VALUE: "< 5.00"

Now for the molecule whose pEC50 we want.
Exercise: # get_value(readout='pEC50', item= Clc1cccc(C#Cc2n[nH]c3ncccc23)c1 [Compound 10.1] )
Key: < 5.00

###

TARGET SYSTEM: UniProt P35367
ASSAY DETAILS: Calcium Flux HRH1 Agonist
Format: cell-based
QUANTITY NAME: EC50

Exercise: Query EC50 on UniProt P35367 for CC(C)(C)c1ccc(C#CC(O)c2ccccc2)cc1 (racemic) [Compound 3.3]
Key: > 10 µM

###

# EC50 listing for each entry below
TARGET SYSTEM: ADRA2A (Homo sapiens, UniProt P08913)
Sequence (P08913 whole entry): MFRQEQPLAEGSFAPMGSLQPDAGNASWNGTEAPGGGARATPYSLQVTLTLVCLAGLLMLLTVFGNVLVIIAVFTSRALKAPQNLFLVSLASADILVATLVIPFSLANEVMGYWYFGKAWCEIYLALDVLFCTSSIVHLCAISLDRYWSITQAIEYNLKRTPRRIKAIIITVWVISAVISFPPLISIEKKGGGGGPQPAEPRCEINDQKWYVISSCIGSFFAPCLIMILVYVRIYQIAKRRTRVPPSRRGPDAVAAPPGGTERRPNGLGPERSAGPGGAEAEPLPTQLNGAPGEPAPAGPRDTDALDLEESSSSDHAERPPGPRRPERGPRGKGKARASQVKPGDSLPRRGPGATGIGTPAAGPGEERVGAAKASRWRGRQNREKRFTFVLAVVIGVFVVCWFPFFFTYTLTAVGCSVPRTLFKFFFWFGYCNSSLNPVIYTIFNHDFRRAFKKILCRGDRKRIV
ASSAY DETAILS: cAMP ADRA2A Agonist

- COMPOUND: "CC(C)(C)c1ccc(C#CC(O)c2ccccc2)cc1 (racemic)"
  EC50: "> 10 µM"

Exercise: # get_value(readout='EC50', item= `Clc1cccc(C#Cc2n[nH]c3ncccc23)c1` )
Key: > 10 µM

###

TARGET SYSTEM: CHRM3 (Homo sapiens, UniProt P20309)
Sequence (P20309 whole entry): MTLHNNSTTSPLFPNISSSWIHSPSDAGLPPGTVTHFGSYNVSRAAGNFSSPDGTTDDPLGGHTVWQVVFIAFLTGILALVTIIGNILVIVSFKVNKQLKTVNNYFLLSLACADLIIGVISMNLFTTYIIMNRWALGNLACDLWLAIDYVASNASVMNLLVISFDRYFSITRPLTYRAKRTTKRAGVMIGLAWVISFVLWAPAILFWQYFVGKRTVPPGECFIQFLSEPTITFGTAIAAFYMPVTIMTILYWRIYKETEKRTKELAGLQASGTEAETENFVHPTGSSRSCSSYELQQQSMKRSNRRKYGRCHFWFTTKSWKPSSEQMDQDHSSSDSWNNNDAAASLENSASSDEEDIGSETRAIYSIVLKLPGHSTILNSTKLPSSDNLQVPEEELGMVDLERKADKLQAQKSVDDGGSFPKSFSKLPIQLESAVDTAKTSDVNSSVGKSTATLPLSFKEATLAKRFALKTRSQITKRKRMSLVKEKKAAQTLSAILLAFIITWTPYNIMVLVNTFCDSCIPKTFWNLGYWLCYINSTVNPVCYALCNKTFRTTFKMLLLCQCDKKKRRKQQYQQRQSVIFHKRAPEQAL
ASSAY DETAILS: Calcium Flux CHRM3 Antagonist
pIC50: −log10 of the molar value.
QUANTITY NAME: pIC50

- COMPOUND: "Clc1cccc(C#Cc2n[nH]c3ncccc23)c1"
  pIC50: "< 5.00"

Exercise: # get_value(readout='pIC50', item= CC(C)(C)c1ccc(C#CC(O)c2ccccc2)cc1 (racemic) )
Key: < 5.00

###

TARGET SYSTEM: EDNRA (Homo sapiens)
ASSAY DETAILS: Calcium Flux EDNRA Agonist
ASSAY CONTEXT: Calcium Flux EDNRA Agonist; read-out: RC50, result type EC50
pEC50: −log10 of the molar value.
# pEC50 listing for each entry below

Exercise: # get_value(readout='pEC50', item= Clc1cccc(C#Cc2n[nH]c3ncccc23)c1 [Compound 10.1] )
Key: < 5.00

Exercise: # get_value(readout='pEC50', item= CC(C)(C)c1ccc(C#CC(O)c2ccccc2)cc1 (racemic) [Compound 3.3] )
Key: < 5.00

###

TARGET SYSTEM: KvLQT1/minK (Homo sapiens, UniProt P51787)
ASSAY DETAILS: Ion Channel KvLQT1/minK Opener
Assay type: cell-based
QUANTITY NAME: EC50

Exercise: # get_value(readout='EC50', item= CC(C)(C)c1ccc(C#CC(O)c2ccccc2)cc1 (racemic) )
Key: > 10 µM

###

ASSAY DETAILS: Aqueous solubility
Assay type: physicochemical
ASSAY CONTEXT: aqueous buffer, kinetic from dmso stock; PBS pH 7.4, tested at 200 μM, 24 h room temperature; read-out: aqueous solubility PBS (pH 7.4)
QUANTITY NAME: solubility at 24 h (µM)
Numeric only. Scale: µM

Exercise: # get_value(readout='solubility at 24 h', item= CC(C)(C)c1ccc(C#CC(O)c2ccccc2)cc1 (racemic) [Compound 3.3] )
Key: 17.7

###

TARGET SYSTEM: HTR2A (Homo sapiens)
Sequence (P28223 whole entry): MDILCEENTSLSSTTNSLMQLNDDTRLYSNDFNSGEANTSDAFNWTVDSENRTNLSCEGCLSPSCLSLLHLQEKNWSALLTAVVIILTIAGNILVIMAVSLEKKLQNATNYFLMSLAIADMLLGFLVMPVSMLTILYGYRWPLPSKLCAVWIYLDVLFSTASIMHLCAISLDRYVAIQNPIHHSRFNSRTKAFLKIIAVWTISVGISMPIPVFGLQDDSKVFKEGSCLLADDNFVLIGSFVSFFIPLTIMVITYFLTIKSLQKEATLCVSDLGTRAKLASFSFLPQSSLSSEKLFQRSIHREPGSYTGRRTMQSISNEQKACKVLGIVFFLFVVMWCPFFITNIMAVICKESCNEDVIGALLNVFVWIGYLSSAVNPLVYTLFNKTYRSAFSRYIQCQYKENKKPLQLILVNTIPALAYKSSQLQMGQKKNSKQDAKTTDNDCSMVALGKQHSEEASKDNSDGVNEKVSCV
ASSAY DETAILS: Calcium Flux HTR2A Agonist
pEC50: −log10 of the molar value.
# pEC50 listing for each entry below

- COMPOUND: "CC(C)(C)c1ccc(C#CC(O)c2ccccc2)cc1 (racemic)"
  pEC50: "< 5.00"

Exercise: # get_value(readout='pEC50', item= `Clc1cccc(C#Cc2n[nH]c3ncccc23)c1` )
Key: < 5.00

###

TARGET SYSTEM: HTR1B (Homo sapiens)
Sequence (P28222 whole entry): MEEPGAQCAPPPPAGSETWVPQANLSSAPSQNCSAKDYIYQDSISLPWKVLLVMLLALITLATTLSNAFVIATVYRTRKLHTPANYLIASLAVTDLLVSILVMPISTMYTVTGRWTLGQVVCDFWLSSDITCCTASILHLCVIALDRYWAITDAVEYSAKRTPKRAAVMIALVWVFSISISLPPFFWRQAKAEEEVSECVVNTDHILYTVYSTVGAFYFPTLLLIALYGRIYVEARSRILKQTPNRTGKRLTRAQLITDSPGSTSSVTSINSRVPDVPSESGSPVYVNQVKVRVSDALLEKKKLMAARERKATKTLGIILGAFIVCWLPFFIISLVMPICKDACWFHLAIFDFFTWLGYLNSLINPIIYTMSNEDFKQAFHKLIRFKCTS
QUANTITY NAME: IC50 (µM)
Numeric only. Scale: µM

Exercise: Query IC50 on HTR1B (Homo sapiens) for CC(C)(C)c1ccc(C#CC(O)c2ccccc2)cc1 (racemic) [Compound 3.3]
Key: 6.4

###

Parameter IC50, tested on ADRA2A (Homo sapiens, UniProt P08913), listed per item.

- MOLECULE: "CC(C)(C)c1ccc(C#CC(O)c2ccccc2)cc1 (racemic) [Compound 3.3]"
  QUANTITY NAME: "IC50"
  RESULT VALUE: "> 10 µM"

Now for the molecule whose IC50 we want.
Exercise: # get_value(readout='IC50', item= Clc1cccc(C#Cc2n[nH]c3ncccc23)c1 [Compound 10.1] )
Key: > 10 µM

###

TARGET SYSTEM: CHRM1 (Homo sapiens, UniProt P11229)
ASSAY DETAILS: Calcium Flux CHRM1 Antagonist
# IC50 listing for each entry below

Exercise: # get_value(readout='IC50', item= Clc1cccc(C#Cc2n[nH]c3ncccc23)c1 [Compound 10.1] )
Key: > 10 µM

Exercise: # get_value(readout='IC50', item= CC(C)(C)c1ccc(C#CC(O)c2ccccc2)cc1 (racemic) [Compound 3.3] )
Key: > 10 µM

###

# IC50 listing for each entry below
TARGET SYSTEM: nAChR (a4/b2) (Homo sapiens, UniProt P17787+P43681)
Sequence (P43681 29-627 limits assumed): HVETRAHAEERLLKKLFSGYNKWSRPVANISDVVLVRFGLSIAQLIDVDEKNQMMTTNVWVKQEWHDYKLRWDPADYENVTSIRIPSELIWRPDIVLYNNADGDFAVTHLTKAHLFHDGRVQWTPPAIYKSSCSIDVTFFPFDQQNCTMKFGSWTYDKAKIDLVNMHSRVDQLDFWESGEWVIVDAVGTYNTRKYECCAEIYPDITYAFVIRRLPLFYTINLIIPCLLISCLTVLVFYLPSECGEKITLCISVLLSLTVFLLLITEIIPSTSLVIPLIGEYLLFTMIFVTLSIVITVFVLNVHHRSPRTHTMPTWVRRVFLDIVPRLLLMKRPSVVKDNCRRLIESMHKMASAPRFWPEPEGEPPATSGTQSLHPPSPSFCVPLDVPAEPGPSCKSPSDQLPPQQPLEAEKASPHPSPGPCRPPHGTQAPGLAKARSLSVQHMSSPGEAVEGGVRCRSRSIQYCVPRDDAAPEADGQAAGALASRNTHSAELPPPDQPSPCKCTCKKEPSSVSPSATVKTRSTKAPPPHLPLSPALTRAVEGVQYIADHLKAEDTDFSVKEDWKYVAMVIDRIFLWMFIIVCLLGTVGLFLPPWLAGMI
Sequence (P17787 26-502): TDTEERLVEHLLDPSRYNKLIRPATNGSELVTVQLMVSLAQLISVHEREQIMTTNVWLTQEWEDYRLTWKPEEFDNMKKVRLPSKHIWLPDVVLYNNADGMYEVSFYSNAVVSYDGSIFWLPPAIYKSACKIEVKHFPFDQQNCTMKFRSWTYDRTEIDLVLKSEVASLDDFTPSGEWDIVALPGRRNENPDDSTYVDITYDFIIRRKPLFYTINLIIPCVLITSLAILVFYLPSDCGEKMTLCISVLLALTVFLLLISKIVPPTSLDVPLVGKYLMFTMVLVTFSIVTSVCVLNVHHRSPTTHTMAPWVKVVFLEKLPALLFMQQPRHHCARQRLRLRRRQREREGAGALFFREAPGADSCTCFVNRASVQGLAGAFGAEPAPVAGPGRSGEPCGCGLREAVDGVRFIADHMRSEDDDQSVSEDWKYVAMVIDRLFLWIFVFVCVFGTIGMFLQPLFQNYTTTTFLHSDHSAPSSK
ASSAY DETAILS: Ion Channel nAChR (a4/b2) Blocker

- COMPOUND: "Clc1cccc(C#Cc2n[nH]c3ncccc23)c1"
  QUANTITY NAME: "IC50"
  RESULT VALUE: "> 10 µM"

Now for the compound whose IC50 we want.
Exercise: # get_value(readout='IC50', item= CC(C)(C)c1ccc(C#CC(O)c2ccccc2)cc1 (racemic) )
Key: 6.9 µM

###

TARGET SYSTEM: HRH1 (Homo sapiens, UniProt P35367)
Sequence (P35367 whole entry): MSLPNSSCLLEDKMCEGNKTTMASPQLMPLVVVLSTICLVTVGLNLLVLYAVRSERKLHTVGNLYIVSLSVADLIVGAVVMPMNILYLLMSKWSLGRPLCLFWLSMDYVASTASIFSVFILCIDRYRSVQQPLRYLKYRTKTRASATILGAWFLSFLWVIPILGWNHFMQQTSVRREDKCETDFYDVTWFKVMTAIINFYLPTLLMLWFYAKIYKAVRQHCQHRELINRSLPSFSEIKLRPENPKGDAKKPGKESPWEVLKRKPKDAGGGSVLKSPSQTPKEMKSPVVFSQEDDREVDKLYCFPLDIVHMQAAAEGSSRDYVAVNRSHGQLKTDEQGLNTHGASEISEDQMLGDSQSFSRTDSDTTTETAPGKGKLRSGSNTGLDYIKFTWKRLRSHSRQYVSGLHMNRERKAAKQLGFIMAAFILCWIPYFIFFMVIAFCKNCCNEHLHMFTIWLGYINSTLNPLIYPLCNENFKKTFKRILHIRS
ASSAY DETAILS: Calcium Flux HRH1 Antagonist
Format: cell-based
QUANTITY NAME: IC50

Exercise: # get_value(readout='IC50', item= CC(C)(C)c1ccc(C#CC(O)c2ccccc2)cc1 (racemic) )
Key: > 10 µM

###

TARGET SYSTEM: HRH2 (Homo sapiens, UniProt P25021)
ASSAY DETAILS: cAMP HRH2 Agonist
Type: cell-based
ASSAY CONTEXT: cAMP HRH2 Agonist; read-out: RC50, result type EC50
pEC50: −log10 of the molar value.
QUANTITY NAME: pEC50

Exercise: # get_value(readout='pEC50', item= Clc1cccc(C#Cc2n[nH]c3ncccc23)c1 [Compound 10.1] )
Key: < 5.00

###

# half-life at 100 nM listing for each entry below
ASSAY DETAILS: Intrinsic clearance (liver microsomes)
Format: in vitro ADME
ASSAY CONTEXT: pooled liver microsomes, pH 7.4, human liver microsomes
Numeric only. Scale: min

- COMPOUND: "Clc1cccc(C#Cc2n[nH]c3ncccc23)c1"
  half-life at 100 nM / min: 10

Now for the compound whose half-life at 100 nM we want.
Exercise: # get_value(readout='half-life at 100 nM', item= CC(C)(C)c1ccc(C#CC(O)c2ccccc2)cc1 (racemic) )
Key: 19

###

TARGET SYSTEM: ADRA1A (Homo sapiens, UniProt P35348)
Sequence (P35348 whole entry): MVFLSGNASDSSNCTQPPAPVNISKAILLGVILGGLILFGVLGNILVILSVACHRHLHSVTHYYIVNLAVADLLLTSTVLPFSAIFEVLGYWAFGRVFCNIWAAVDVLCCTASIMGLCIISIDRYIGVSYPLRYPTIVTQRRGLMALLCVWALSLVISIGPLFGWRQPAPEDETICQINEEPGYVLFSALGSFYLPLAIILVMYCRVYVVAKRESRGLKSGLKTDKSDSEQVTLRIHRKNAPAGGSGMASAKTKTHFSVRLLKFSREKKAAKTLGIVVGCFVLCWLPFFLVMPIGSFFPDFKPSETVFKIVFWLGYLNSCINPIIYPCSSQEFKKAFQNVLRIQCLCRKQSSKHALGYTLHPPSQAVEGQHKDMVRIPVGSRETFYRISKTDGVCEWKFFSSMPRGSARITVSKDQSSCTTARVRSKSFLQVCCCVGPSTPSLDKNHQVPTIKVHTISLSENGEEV
ASSAY DETAILS: Calcium Flux ADRA1A Antagonist
# IC50 listing for each entry below

- COMPOUND: "Clc1cccc(C#Cc2n[nH]c3ncccc23)c1"
  IC50: "> 10 µM"

Now for the compound whose IC50 we want.
Exercise: # get_value(readout='IC50', item= CC(C)(C)c1ccc(C#CC(O)c2ccccc2)cc1 (racemic) )
Key: > 10 µM

###

TARGET SYSTEM: ADRB2 (Homo sapiens, UniProt P07550)
ASSAY DETAILS: cAMP ADRB2 Agonist
Type: cell-based
ASSAY CONTEXT: cAMP ADRB2 Agonist; read-out: RC50, result type EC50
pEC50: −log10 of the molar value.
QUANTITY NAME: pEC50

Exercise: # get_value(readout='pEC50', item= Clc1cccc(C#Cc2n[nH]c3ncccc23)c1 [Compound 10.1] )
Key: < 5.00
